# System: SK-MEL-28 melanoma
# run_description: NCI tumour cell line growth inhibition, 48 h; in the data active means GI50 below about 0.43 µM; inactive means the rest
The reply should be one of these categories: T for active, F for inactive

Answered cases to consult:
{"compound": "COc1cccc2cc(N(C)c3nc(C)nc4ccsc34)ccc12", "target_under_test": "SK-MEL-28 melanoma", "discrete_label": "F"}
{"compound": "c1cc(-c2cnn3nc(N4CCOCC4)ccc23)nc(NC2CC2)n1", "target_under_test": "SK-MEL-28 melanoma", "discrete_label": "F"}
{"compound": "COc1ccc(Cn2cc3c(c2-c2ccccc2)CCc2cncnc2-3)cc1", "target_under_test": "SK-MEL-28 melanoma", "discrete_label": "F"}
{"compound": "NCCCn1c2c(c3ccc([N+](=O)[O-])cc3c1=O)C(=O)c1cc(Cl)ccc1-2", "target_under_test": "SK-MEL-28 melanoma", "discrete_label": "T"}
{"compound": "CN(C)CCN1C(=O)c2cccc3c(-c4ccc5ncn(C6CCCCC6)c5c4)ccc(c23)C1=O", "target_under_test": "SK-MEL-28 melanoma", "discrete_label": "F"}

Entry CCCCCCCCCCC(CN(CC)CC)C(O)c1ccccc1 (stereo unspecified) : call = ?
F

* * *

# System: IGROV1 ovarian
# run_description: NCI tumour cell line growth inhibition, 48 h
observation_type: TGI (µM)
Record the value in µM, omitting the unit from your answer.

Solved entries:
{"molecule": "OCCCCC#Cc1ccccc1C#Cc1cccs1", "target_under_test": "IGROV1 ovarian", "TGI, µM": 30.5}
{"molecule": "O=C1C(Cl)=C(Nc2ccc3c(c2NC2=C(Cl)C(=O)c4ccccc4C2=O)C(=O)c2ccccc2C3=O)C(=O)c2ccccc21", "target_under_test": "IGROV1 ovarian", "TGI, µM": 4.25}
{"molecule": "Cc1ccc(N2C(=O)C(O)=C(C(=O)C(C)(C)C)C2c2ccc([N+](=O)[O-])cc2)cc1 (stereo unspecified)", "target_under_test": "IGROV1 ovarian", "TGI, µM": 43.7}
{"molecule": "CCN1CCN(c2nc(C)cc(N(CCCNc3ccnc4cc(Cl)ccc34)Cc3ccco3)n2)CC1", "target_under_test": "IGROV1 ovarian", "TGI, µM": 15.4}
{"molecule": "CN1CCN(c2ccc3nc(-c4ccc5nc(-c6ccc(N(C)CCCl)cc6)[nH]c5c4)[nH]c3c2)CC1", "target_under_test": "IGROV1 ovarian", "TGI, µM": 0.391}

Tell me the measured TGI of COc1cc(C(=O)OC2CC(C)=CC[C@@]3(C)CC[C@](O)(C(C)C)C23)ccc1O (stereo partly specified) , please.
33.4

Tell me the measured TGI of "COc1ccc(-c2cc3nccn3c(Nc3ncccc3C(N)=O)n2)cc1OC" , please.
6.19

Tell me the measured TGI of "CC(C)(C)[Si](Nc1ccccc1)(c1ccccc1)c1ccccc1" , please.
28.3

Tell me the measured TGI of "CCCCCC/C=C\CCCCCCCCCc1c(O)c(OC)cc(O)c1CN(C)C" , please.
11

Tell me the measured TGI of "COC(=O)Nc1nc2ccc(NS(=O)(=O)c3ccc(F)cc3)cc2[nH]1" , please.
9.93

Tell me the measured TGI of CCCCCCCCC[C@@H]1C[C@@H]2CCC3C(C(=O)OCCCCNC(=O)OCc4ccccc4)=C(C)NC(=N1)N32 (stereo partly specified) , please.
6.11

Tell me the measured TGI of "O=C1c2c(O)cccc2C(C(=O)CCCC(=O)C2c3cccc(O)c3C(=O)c3c(O)cccc32)c2cccc(O)c21" , please.
2.41

Tell me the measured TGI of COc1cc(C2c3cc4c(cc3[C@@H](Nc3ccc(N5CCOCC5)cc3)C3COC(=O)[C@H]23)OCO4)cc(OC)c1O (stereo partly specified) , please.
26

Tell me the measured TGI of O=C1CSC(c2c(O)ccc3ccccc23)N1n1c(=S)[nH]nc(/C=C/c2c(O)ccc3ccccc23)c1=O (stereo unspecified) , please.
26.7

Tell me the measured TGI of "Cc1ccc(C(=O)/C=C/N2CCN(c3cccc(C(F)(F)F)c3)CC2)cc1" , please.
31.4
